- Tested on: hPIV3-GFP
- assay_name: microbe, parasite or virus in culture
- Type: cell-based, human parainfluenza virus 3
- run_parameters: Human respirovirus 3, NCI-H358
measured_quantity: pEC50
Just the number, please; pEC50 means minus log10 of the concentration in mol/L.

Lab note: hPIV3-GFP assay, enter pEC50 for [N-]=[N+]=N[C@]1(CO)O[C@@H](n2ccc(N)nc2=O)[C@H](O)[C@@H]1O [R1479, 4′-azidocytidine] here
5.49

====

- Test system: RVFV-GFP, ZH501
- assay_name: microbe, parasite or virus in culture
- Type: cell-based, Rift Valley Fever virus
- run_parameters: Rift Valley fever virus, NCI-H358
pEC50: −log10 of the molar value.
measured_quantity: pEC50

# return recorded pEC50 for entry "[N-]=[N+]=N[C@]1(CO)O[C@@H](n2ccc(N)nc2=O)[C@H](O)[C@@H]1O"
< 4.30

====

- Tested on: NiV (Malaysian genotype)
- assay_name: microbe, parasite or virus in culture
- Assay type: cell-based, Nipah virus
- run_parameters: Henipavirus nipahense, NCI-H358
measured_quantity: EC50 (nM)
Give a bare numeral; the unit nM is implied.

# return recorded EC50 for entry "[N-]=[N+]=N[C@]1(CO)O[C@@H](n2ccc(N)nc2=O)[C@H](O)[C@@H]1O"
2900
